B1: CDC14A (parent)
chain: GPHPKSKIENGYPLHAPEAYFPYF

variants of: B1; experiment: protein stability index of a GFP-peptide fusion (GPS, HEK-293T) (PSI 1-6); higher = more stable; settings: c terminus: a fixed tail appended;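 note: lentivirally expressed fusions sorted by FACS into six bins by GFP to DsRed ratio, PSI derived from sequencing read proportions per bin multiplied by bin number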

| Residue change | protein stability index |
| --- | --- |
| F24V | 2.75 |
| P17W | 2.04 |
| S6H | 2.63 |
| G11I | 1.64 |
| P2R | 2.34 |
| H15V | 2.53 |
| I8G | 2.28 |
| A16D | 2.45 |
| Y20K | 2.79 |
| G11E | 2.52 |
| L14Y | 1.89 |
| K7A | 2.33 |
| E18L | 2.03 |
| A19C | 1.8 |
| Y12W | 1.86 |
| S6C | 1.87 |
| P4N | 2.48 |
| F21H | 2.47 |
| P4E | 2.11 |
| P22L | 2.38 |
| H15S | 2.83 |
| P2N | 2.1 |
| L14D | 2.59 |
| A19M | 2.97 |
| H3L | 2.19 |
| H3S | 2.55 |
| F21L | 2.17 |
| K7T | 2.43 |
| F24R | 2.44 |
| P2T | 2.17 |
| N10L | 2.19 |
| P17L | 1.97 |
| G1Y | 1.51 |
| F21N | 2.91 |
| E9P | 1.69 |
| P22G | 1.8 |
| Y12E | 3.56 |
| A16V | 2.21 |
| I8N | 2.98 |
| Y23W | 1.91 |
| P4D | 2.12 |
| A19R | 1.78 |
| E18Y | 2.22 |
| Y23L | 1.95 |
| G1M | 2.51 |
| S6N | 2.21 |
